Tested on: Nucleic Acid
Assay: In vitro binding affinity towards Poly (dA-dT)2
Type: nucleic-acid assay
# reported ΔTm; entries follow

Use the examples below as a reference point.
# smiles notation, ΔTm
rows = [
    ("N=C(N)c1ccc(-c2cccc(-c3cn4cc(C(=N)N)ccc4n3)c2)cc1", "> 27"),
    ("Cc1cc(C(=N)N)cn2cc(-c3ccc(-c4ccc(C(=N)N)cc4)o3)nc12", "> 27"),
]

Now turn to the next molecule.
What value of ΔTm on Nucleic Acid does Cc1cc(C(=N)N)cn2cc(-c3cccc(-c4ccc(C(=N)N)cc4)c3)nc12 have?
> 27
